Experiment: Cmax in mouse at 50 mg/kg, ip measured for 12 hrs
Type: ADME, organism-based
Parameters: time 12 hrs, dose 50 mg/kg, route ip
Details: in vivo
parameter measured: Cmax

Prompt line: Consider the molecule shown here: CC(C)Cn1cc(C(NS(=O)(=O)C2CC2)C(F)(F)F)c2ccc(-c3ccccc3C(F)(F)F)cc21 (stereo unspecified) What is its recorded Cmax?
Response line: ~800 nM

====

Target: CYP3A4 (Homo sapiens, UniProt P08684)
Sequence (P08684 whole entry): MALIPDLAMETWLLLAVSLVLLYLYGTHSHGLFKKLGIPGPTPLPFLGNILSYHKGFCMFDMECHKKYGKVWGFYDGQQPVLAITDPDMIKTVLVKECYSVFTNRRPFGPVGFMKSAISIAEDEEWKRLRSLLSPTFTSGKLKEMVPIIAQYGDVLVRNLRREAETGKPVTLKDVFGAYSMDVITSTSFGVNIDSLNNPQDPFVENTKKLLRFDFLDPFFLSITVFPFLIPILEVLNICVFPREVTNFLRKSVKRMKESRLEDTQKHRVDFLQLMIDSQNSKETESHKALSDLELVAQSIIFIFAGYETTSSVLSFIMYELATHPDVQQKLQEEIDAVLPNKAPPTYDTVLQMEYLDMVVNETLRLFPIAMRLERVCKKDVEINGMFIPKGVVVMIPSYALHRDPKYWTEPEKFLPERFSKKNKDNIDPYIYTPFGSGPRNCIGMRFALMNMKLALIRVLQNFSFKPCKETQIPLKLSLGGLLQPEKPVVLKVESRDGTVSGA
Assay: Inhibition of CYP3A4 (unknown origin) at 10 uM relative to control
Format: ADME
parameter measured: inhibition at 10 µM (%)
Give the value, in units of %, as a plain number.

These solved cases illustrate the format of a correct answer.
CC(C)Cn1cc(CCNS(=O)(=O)N(C)C)c2ccc(-c3cccnc3)cc21; 96
CC(C)Cn1cc(CCNS(=O)(=O)N(C)C)c2ccc(-c3ccccc3)cc21; 22

Now take the following molecule into account.
Prompt line: Which value of inhibition at 10 µM has been reported for `CC(C)Cn1cc(CCNS(=O)(=O)N(C)C)c2ccc(-c3ccccn3)cc21` in the records?
Response line: 96

====

Assay: Metabolic stability in human liver microsome assessed as half life
Assay type: ADME
Conditions: liver microsomes
Form field: log10(half-life) (one value per entry).
Quick note: numbers are log10 of half-life, with min as the unit.

CC(C)Cn1cc(CCNS(=O)(=O)C2CC2)c2ccc(-c3ccccc3C(F)(F)F)cc21; 0.60
CC(C)Cn1cc(CNS(=O)(=O)C2CC2)c2ccc(-c3ccccc3C(F)(F)F)cc21; 0.70
CC(C)Cn1cc(C(NS(=O)(=O)C2CC2)C(F)(F)F)c2ccc(-c3ccccc3C(F)(F)F)cc21 (stereo not given); 1.88

Prompt line: Form field: reported log10(half-life) of CC(C)Cn1cc(C(C)NS(=O)(=O)C2CC2)c2ccc(-c3ccccc3C(F)(F)F)cc21 (stereo not given)
Response line: 0.95

Prompt line: Okay, and `CC(C)Cn1cc(C(C)(C)NS(=O)(=O)C2CC2)c2ccc(-c3ccccc3C(F)(F)F)cc21` ?
Response line: 1.90

====

Biological target: CYP1A2 (Homo sapiens)
Sequence (P05177 whole entry): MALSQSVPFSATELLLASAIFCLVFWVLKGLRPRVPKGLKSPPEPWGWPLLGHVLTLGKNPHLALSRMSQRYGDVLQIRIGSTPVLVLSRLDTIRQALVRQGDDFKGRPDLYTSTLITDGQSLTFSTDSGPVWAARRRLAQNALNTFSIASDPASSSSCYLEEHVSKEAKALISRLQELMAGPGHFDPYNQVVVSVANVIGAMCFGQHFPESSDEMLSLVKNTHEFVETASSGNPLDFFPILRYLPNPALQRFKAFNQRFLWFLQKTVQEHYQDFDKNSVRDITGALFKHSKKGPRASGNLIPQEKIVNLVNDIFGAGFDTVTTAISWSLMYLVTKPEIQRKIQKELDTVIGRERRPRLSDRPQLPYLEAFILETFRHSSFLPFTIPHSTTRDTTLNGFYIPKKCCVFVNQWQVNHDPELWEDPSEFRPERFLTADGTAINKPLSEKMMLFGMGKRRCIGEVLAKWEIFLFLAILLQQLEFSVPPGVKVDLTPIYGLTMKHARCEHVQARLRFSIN
Assay: Inhibition of CYP1A2 (unknown origin) at 10 uM relative to control
Assay type: ADME
parameter measured: inhibition at 10 µM

Prompt line: Please give the measured inhibition at 10 µM for this compound: CC(C)Cn1cc(C(NS(=O)(=O)C2CC2)C(F)(F)F)c2ccc(-c3ccccc3C(F)(F)F)cc21 (stereo unspecified)
Response line: < 30%

====

Test: Metabolic stability in mouse liver microsome assessed as half life
Type: ADME
Conditions: liver microsomes
Below, each entry is listed alongside its reported half-life.
Please state the figure in min; there is no need to write the unit.

Below, 4 compounds whose answers are already recorded.
CC(C)Cn1cc(C(C)(C)NS(=O)(=O)C2CC2)c2ccc(-c3ccccc3C(F)(F)F)cc21; 3
CC(C)Cn1cc(CNS(=O)(=O)C2CC2)c2ccc(-c3ccccc3C(F)(F)F)cc21; 5
CC(C)Cn1cc(CCNS(=O)(=O)C2CC2)c2ccc(-c3ccccc3C(F)(F)F)cc21; 3
CC(C)Cn1cc(C(NS(=O)(=O)C2CC2)C(F)(F)F)c2ccc(-c3ccccc3C(F)(F)F)cc21 (stereo not given); 32

Below: the item to evaluate.
Prompt line: Which half-life value is on record for CC(C)Cn1cc(C(C)NS(=O)(=O)C2CC2)c2ccc(-c3ccccc3C(F)(F)F)cc21 (stereo not given) ?
Response line: 10

====

Biological target: CYP2C9 (Homo sapiens, UniProt P11712)
Sequence (P11712 whole entry): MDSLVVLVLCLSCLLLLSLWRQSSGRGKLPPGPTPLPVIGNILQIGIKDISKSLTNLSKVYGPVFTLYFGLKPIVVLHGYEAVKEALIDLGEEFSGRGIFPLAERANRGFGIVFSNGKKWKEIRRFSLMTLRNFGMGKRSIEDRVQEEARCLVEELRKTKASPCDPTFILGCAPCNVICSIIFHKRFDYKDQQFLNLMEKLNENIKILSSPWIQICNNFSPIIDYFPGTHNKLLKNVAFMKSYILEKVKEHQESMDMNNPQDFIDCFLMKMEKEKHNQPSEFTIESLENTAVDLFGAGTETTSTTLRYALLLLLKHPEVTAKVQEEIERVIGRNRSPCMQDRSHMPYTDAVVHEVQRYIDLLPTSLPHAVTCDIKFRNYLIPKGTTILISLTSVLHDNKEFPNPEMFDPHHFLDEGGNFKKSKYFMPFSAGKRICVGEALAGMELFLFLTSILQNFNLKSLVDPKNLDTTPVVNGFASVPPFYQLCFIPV
Assay: Inhibition of CYP2C9 (unknown origin) at 10 uM relative to control
Format: ADME
parameter measured: inhibition at 10 µM

Prompt line: State its inhibition at 10 µM on CYP2C9 (Homo sapiens, UniProt P11712): CC(C)Cn1cc(C(NS(=O)(=O)C2CC2)C(F)(F)F)c2ccc(-c3ccccc3C(F)(F)F)cc21 (stereo unspecified)
Response line: < 30%

====

Assay: Cmax in mouse at 50 mg/kg, ip measured at 2 hrs
Assay type: ADME, organism-based
Design: dose 50 mg/kg, time 2 hrs, route ip
Conditions: in vivo
parameter measured: Cmax (µM)
Number in µM, nothing else.

Prompt line: Item CC(C)Cn1cc(C(NS(=O)(=O)C2CC2)C(F)(F)F)c2ccc(-c3ccccc3C(F)(F)F)cc21 (stereo unspecified) has what recorded Cmax?
Response line: 12.2

====

Recorded measurements of pEC50, one per entry
Biological target: Nuclear receptor subfamily 1 group D member 1 (Homo sapiens)
Sequence (P20393 whole entry, the tested form may be a part): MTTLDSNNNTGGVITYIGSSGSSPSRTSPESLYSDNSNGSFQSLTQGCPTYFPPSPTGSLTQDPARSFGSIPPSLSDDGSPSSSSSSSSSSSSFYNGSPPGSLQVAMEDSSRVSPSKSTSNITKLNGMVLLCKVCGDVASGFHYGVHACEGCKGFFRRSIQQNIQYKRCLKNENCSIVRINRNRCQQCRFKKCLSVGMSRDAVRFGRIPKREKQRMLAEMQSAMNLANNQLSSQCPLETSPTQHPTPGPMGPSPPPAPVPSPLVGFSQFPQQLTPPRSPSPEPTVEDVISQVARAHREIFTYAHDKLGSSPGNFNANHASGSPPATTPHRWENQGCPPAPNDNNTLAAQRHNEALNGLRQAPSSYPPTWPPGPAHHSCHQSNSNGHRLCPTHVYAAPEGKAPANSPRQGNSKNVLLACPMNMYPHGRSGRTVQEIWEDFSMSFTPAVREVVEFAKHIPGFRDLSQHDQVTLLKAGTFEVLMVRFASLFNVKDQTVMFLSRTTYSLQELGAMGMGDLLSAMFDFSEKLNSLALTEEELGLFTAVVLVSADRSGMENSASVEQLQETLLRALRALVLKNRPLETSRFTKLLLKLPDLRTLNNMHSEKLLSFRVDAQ
Test: Agonist activity at his6-tagged human REV-ERBalpha LBD (281 to 614 residues) expressed in Escherichia coli assessed as increase in SMRT corepressor peptide […] by TR-FRET assay incubated for 2 hrs by TR-FRET assay
Scale: pEC50 equals -log10([C]), with [C] in mol/L.

CC(C)Cn1cc(CCNS(=O)(=O)N(C)C)c2ccccc21; 6.00

Prompt line: Looking for the measured pEC50 of CC(C)Cn1cc(C(NS(=O)(=O)C2CC2)C(F)(F)F)c2ccc(-c3ccccc3C(F)(F)F)cc21 (stereo not given) , can you help?
Response line: 6.96

Prompt line: Request: `CC(C)Cn1cc(CCNS(=O)(=O)N(C)C)c2ccc(-c3cccc(C#N)c3)cc21`
Response line: 6.43

Prompt line: Entry CC(C)Cn1cc(C(C)NS(=O)(=O)C2CC2)c2ccc(-c3ccccc3C(F)(F)F)cc21 (stereo not given) please
Response line: 8.15

Prompt line: Input `CC(C)Cn1cc(CCNS(=O)(=O)C2CC2)c2ccc(-c3ccncc3)cc21`
Response line: 7.60

Prompt line: // query: `CC(C)Cn1cc(CCNS(=O)(=O)N(C)C)c2ccc(-c3ccc(F)cc3)cc21`
Response line: 6.10

====

Target: UniProt:P20393
Test: Agonist activity at his6-tagged human REV-ERBalpha LBD (281 to 614 residues) expressed in Escherichia coli assessed as increase in SMRT corepressor peptide […] by TR-FRET assay incubated for 2 hrs by TR-FRET assay
parameter measured: pEC50
Just so you know, pEC50 here is -log10 of the concentration in molar units; reply with that number alone.

CC(C)Cn1cc(CCNS(=O)(=O)N(C)C)c2ccc(-c3cccnc3)cc21; 6.80
CC(C)Cn1cc(CCNS(=O)(=O)N(C)C)c2ccc(-c3ccccn3)cc21; 6.00

Proceeding to the next molecule to report its pEC50.
Prompt line: Consider the molecule `CC(C)Cn1cc(CCNS(=O)(=O)N(C)C)c2ccc(-c3cncnc3)cc21` and give its measured pEC50.
Response line: 5.54
